Data provenance is ChEMBL document CHEMBL5518207.

experimental protocol: Inhibition of GST tagged NDM-1 (unknown origin) expressed in Escherichia coli BL21 Star (DE3) competent cells using CCF2-FA as substrate incubated for 2 hrs by fluorescence based analysis
This listing pairs compounds with measured IC50.
Numeric only. Scale: nM

// worked examples, IC50 included
>>> recorded_number("Nc1ccc(-c2ccc(CC3CCNCC3)c(S(N)(=O)=O)c2-c2nn[nH]n2)cn1")
12
>>> recorded_number("Nc1ccc2ccc(-c3ccc(C(F)(F)F)c(S(N)(=O)=O)c3-c3nn[nH]n3)cc2n1")
1.1
>>> recorded_number("NS(=O)(=O)c1c(CC2CCNCC2)ccc(-c2ccc(C3CCNCC3)cc2)c1-c1nn[nH]n1")
11
>>> recorded_number("Nc1ccc2cccc(-c3ccc(C(F)(F)F)c(S(N)(=O)=O)c3-c3nn[nH]n3)c2n1")
0.1
>>> recorded_number("NC1CCC(N2CCC(c3ccc(-c4ccc(C(F)(F)F)c(S(N)(=O)=O)c4-c4nn[nH]n4)cc3)CC2)CC1 (centres undefined)")
6.4

Exercise: IC50 lookup needed for Nc1nc2cccc(-c3ccc(C(F)(F)F)c(S(N)(=O)=O)c3-c3nn[nH]n3)c2s1 , thanks.
Key: 0.04

Exercise: # iterate: Cc1ccc(-c2ccc(C3CCNCC3)cc2)c(-c2nn[nH]n2)c1S(N)(=O)=O
Key: 31

Exercise: // query: NS(=O)(=O)c1cccc(-c2ccc(C3CCNCC3)cc2)c1-c1nn[nH]n1
Key: 5

Exercise: Param item: N=C(N)N[C@H]1CC[C@H](c2ccc(C(F)(F)F)c(S(N)(=O)=O)c2-c2nn[nH]n2)CC1
Key: 17.5

====

experimental protocol: Clearance in rat at 1 mg/kg, iv measured after 24 hrs by HPLC-MS analysis
Format: ADME, organism-based
assay context: in vivo
Each item that follows carries a reported clearance.
Kindly answer with a numeric value in mL/min/kg, unit omitted.

Solved entries:
>>> recorded_number("NS(=O)(=O)c1c(CC2CCNCC2)ccc(-c2ccc(C3CCNCC3)cc2)c1-c1nn[nH]n1")
6.4
>>> recorded_number("Nc1nc2cccc(-c3ccc(C(F)(F)F)c(S(N)(=O)=O)c3-c3nnn[nH]3)c2[nH]1")
9.6
>>> recorded_number("NS(=O)(=O)c1c(C(F)(F)F)ccc([C@H]2CC[C@H](N)CC2)c1-c1nnn[nH]1")
8.7

Exercise: I am curious: what clearance value has been reported for Nc1ccc(-c2ccc(CC3CCNCC3)c(S(N)(=O)=O)c2-c2nn[nH]n2)cn1 ?
Key: 3.5

====

experimental protocol: Volume of distribution at steady state in rat at 1 mg/kg, iv measured after 24 hrs by HPLC-MS analysis
Format: ADME, organism-based
assay context: in vivo, read-out: Vdss
endpoint name: Vd (L/kg)
Respond with the bare value in L/kg.

>>> recorded_number("NS(=O)(=O)c1c(CC2CCNCC2)ccc(-c2ccc(C3CCNCC3)cc2)c1-c1nn[nH]n1")
0.34
>>> recorded_number("Nc1nc2cccc(-c3ccc(C(F)(F)F)c(S(N)(=O)=O)c3-c3nnn[nH]3)c2[nH]1")
0.38
>>> recorded_number("NS(=O)(=O)c1c(C(F)(F)F)ccc([C@H]2CC[C@H](N)CC2)c1-c1nnn[nH]1")
0.45

Pending compound:
Exercise: Could you share which Vd value was measured for Nc1ccc(-c2ccc(CC3CCNCC3)c(S(N)(=O)=O)c2-c2nn[nH]n2)cn1 ?
Key: 0.25
